Values were extracted from patent US20130029928A1.

assay-details: Phase I study CXR1002-001: plasma pharmacokinetics (LC-MS/MS)
Type: in vivo, human
experimental-setup: human, plasma, oral, 300 mg, Patient 011 Dose 300 mg; 340 hr; read-out: Concentration
observed-property: concentration at 340 h (µM)
Answers are plain numbers, in µM.

## Input Bench note: what concentration at 340 h did O=C(O)C(F)(F)C(F)(F)C(F)(F)C(F)(F)C(F)(F)C(F)(F)C(F)(F)F show?
## Output 147

----------
System: OVCAR-3
assay-details: ATP depletion cytotoxicity assay 48 hr
Format: cell-based
experimental-setup: Homo sapiens, read-out: IC50 1-4 (independent replicates)
observed-property: pIC50
Give bare numbers, as −log10 of the molar value.

## Input Bench note: what pIC50 did O=C(O)C(F)(F)C(F)(F)C(F)(F)C(F)(F)C(F)(F)C(F)(F)C(F)(F)F show?
## Output 3.19

----------
assay-details: Phase I study CXR1002-001: plasma pharmacokinetics (LC-MS/MS)
Type: in vivo, human
experimental-setup: human, plasma, oral, 200 mg, Patient 008 Dose 200 mg; 340 hr; read-out: Concentration
observed-property: concentration at 340 h
Field note: include the unit after the figure.

## Input Bench note: what concentration at 340 h did O=C(O)C(F)(F)C(F)(F)C(F)(F)C(F)(F)C(F)(F)C(F)(F)C(F)(F)F [CXR1002] show?
## Output 192 µM

----------
assay-details: Phase I study CXR1002-001: plasma pharmacokinetics (LC-MS/MS)
Type: in vivo, human
experimental-setup: human, plasma, oral, 300 mg, Patient 011 Dose 300 mg; 840 hr (Day 36); read-out: Concentration
observed-property: concentration at 840 h (µM)
Answers are plain numbers, in µM.

## Input Bench note: what concentration at 840 h did O=C(O)C(F)(F)C(F)(F)C(F)(F)C(F)(F)C(F)(F)C(F)(F)C(F)(F)F show?
## Output 270

----------
assay-details: Phase I study CXR1002-001: plasma pharmacokinetics (LC-MS/MS)
Format: in vivo, human
experimental-setup: human, plasma, oral, 950 mg, Patient 029, 950 mg, person, plasma, 672 hr (Day 29); read-out: Concentration
observed-property: concentration at 672 h (µM)
One number for each entry, in µM.

## Input Bench note: what concentration at 672 h did O=C(O)C(F)(F)C(F)(F)C(F)(F)C(F)(F)C(F)(F)C(F)(F)C(F)(F)F show?
## Output 492

----------
assay-details: Phase I study CXR1002-001: plasma pharmacokinetics (LC-MS/MS)
Format: in vivo, human
experimental-setup: human, plasma, oral, 50 mg, Patient 002 Dose 50 mg; 696 hr (Day 29); read-out: Concentration
observed-property: concentration at 696 h (µM)
Answers are plain numbers, in µM.

## Input Bench note: what concentration at 696 h did O=C(O)C(F)(F)C(F)(F)C(F)(F)C(F)(F)C(F)(F)C(F)(F)C(F)(F)F show?
## Output 21

----------
assay-details: Phase I study CXR1002-001: plasma pharmacokinetics (LC-MS/MS)
Type: in vivo, human
experimental-setup: human, plasma, oral, 50 mg, Patient 002 Dose 50 mg; 360 hr (Day 15); read-out: Concentration
observed-property: concentration at 360 h (µM)
Give bare numbers, in µM.

## Input Bench note: what concentration at 360 h did O=C(O)C(F)(F)C(F)(F)C(F)(F)C(F)(F)C(F)(F)C(F)(F)C(F)(F)F [CXR1002] show?
## Output 18.6

----------
assay-details: Phase I study CXR1002-001: plasma pharmacokinetics (LC-MS/MS)
Assay type: in vivo, human
experimental-setup: human, plasma, oral, 100 mg, Patient 006 Dose 100 mg; 504 hr (Day 22); read-out: Concentration
observed-property: concentration at 504 h (µM)
Answers are plain numbers, in µM.

## Input Bench note: what concentration at 504 h did O=C(O)C(F)(F)C(F)(F)C(F)(F)C(F)(F)C(F)(F)C(F)(F)C(F)(F)F show?
## Output 70.5

----------
assay-details: Phase I study CXR1002-001: plasma pharmacokinetics (LC-MS/MS)
Format: in vivo, human
experimental-setup: human, plasma, oral, 450 mg, Patient 015 Dose 450 mg; 3 hr; read-out: Concentration
observed-property: concentration at 3 h (µM)
Give bare numbers, in µM.

## Input Bench note: what concentration at 3 h did O=C(O)C(F)(F)C(F)(F)C(F)(F)C(F)(F)C(F)(F)C(F)(F)C(F)(F)F show?
## Output 231

----------
assay-details: Phase I study CXR1002-001: plasma pharmacokinetics (LC-MS/MS)
Format: in vivo, human
experimental-setup: human, plasma, po, 1200 mg, Patient 038, 1200 mg weekly oral dose, Time 4 hr; read-out: Concentration (plasma level)
observed-property: concentration at 4 h (µM)
One number for each entry, in µM.

## Input Bench note: what concentration at 4 h did O=C(O)C(F)(F)C(F)(F)C(F)(F)C(F)(F)C(F)(F)C(F)(F)C(F)(F)F [CXR1002] show?
## Output 298

----------
assay-details: Phase I study CXR1002-001: plasma pharmacokinetics (LC-MS/MS)
Format: in vivo, human
experimental-setup: human, plasma, oral, 600 mg, Patient 018, 600 mg, person, plasma, 360 hr (Day 16); read-out: Concentration
observed-property: concentration at 360 h (µM)
One number for each entry, in µM.

## Input Bench note: what concentration at 360 h did O=C(O)C(F)(F)C(F)(F)C(F)(F)C(F)(F)C(F)(F)C(F)(F)C(F)(F)F show?
## Output 554

----------
assay-details: Phase I study CXR1002-001: plasma pharmacokinetics (LC-MS/MS)
Type: in vivo, human
experimental-setup: human, plasma, oral, 200 mg, Patient 008 Dose 200 mg; 508 hr; read-out: Concentration
observed-property: concentration at 508 h (µM)
One number for each entry, in µM.

## Input Bench note: what concentration at 508 h did O=C(O)C(F)(F)C(F)(F)C(F)(F)C(F)(F)C(F)(F)C(F)(F)C(F)(F)F show?
## Output 281

----------
assay-details: Phase I study CXR1002-001: plasma pharmacokinetics (LC-MS/MS)
Assay type: in vivo, human
experimental-setup: human, plasma, oral, 750 mg, Patient 028, 750 mg, person, plasma, 172 hr; read-out: Concentration
observed-property: concentration at 172 h (µM)
Numbers only, in µM.

## Input Bench note: what concentration at 172 h did O=C(O)C(F)(F)C(F)(F)C(F)(F)C(F)(F)C(F)(F)C(F)(F)C(F)(F)F show?
## Output 273

----------
assay-details: Phase I study CXR1002-001: plasma pharmacokinetics (LC-MS/MS)
Type: in vivo, human
experimental-setup: human, plasma, oral, 600 mg, Patient 018, 600 mg, person, plasma, 336 hr (Day 15); read-out: Concentration
observed-property: concentration at 336 h

## Input Bench note: what concentration at 336 h did O=C(O)C(F)(F)C(F)(F)C(F)(F)C(F)(F)C(F)(F)C(F)(F)C(F)(F)F show?
## Output 356 µM

----------
assay-details: Phase I study CXR1002-001: plasma pharmacokinetics (LC-MS/MS)
Format: in vivo, human
experimental-setup: human, plasma, oral, 100 mg, Patient 005 Dose 100 mg; 4 hr; read-out: Concentration
observed-property: concentration at 4 h
Field note: include the unit after the figure.

## Input Bench note: what concentration at 4 h did O=C(O)C(F)(F)C(F)(F)C(F)(F)C(F)(F)C(F)(F)C(F)(F)C(F)(F)F [CXR1002] show?
## Output 23.7 µM

----------
assay-details: Phase I study CXR1002-001: plasma pharmacokinetics (LC-MS/MS)
Assay type: in vivo, human
experimental-setup: human, plasma, oral, 950 mg, Patient 032, 950 mg, person, plasma, 192 hr (Day 9); read-out: Concentration
observed-property: concentration at 192 h

## Input Bench note: what concentration at 192 h did O=C(O)C(F)(F)C(F)(F)C(F)(F)C(F)(F)C(F)(F)C(F)(F)C(F)(F)F show?
## Output 495 µM

----------
assay-details: Phase I study CXR1002-001: plasma pharmacokinetics (LC-MS/MS)
Assay type: in vivo, human
experimental-setup: human, plasma, po, 1000 mg, Patient 041, 1000 mg weekly oral dose, Time 338 hr; read-out: Concentration (plasma level)
observed-property: concentration at 338 hr (µM)
Answers are plain numbers, in µM.

## Input Bench note: what concentration at 338 hr did O=C(O)C(F)(F)C(F)(F)C(F)(F)C(F)(F)C(F)(F)C(F)(F)C(F)(F)F [CXR1002] show?
## Output 411

----------
assay-details: Phase I study CXR1002-001: plasma pharmacokinetics (LC-MS/MS)
Format: in vivo, human
experimental-setup: human, plasma, oral, 50 mg, Patient 002 Dose 50 mg; 192 hr (Day 8); read-out: Concentration
observed-property: concentration at 192 h (µM)
One number for each entry, in µM.

## Input Bench note: what concentration at 192 h did O=C(O)C(F)(F)C(F)(F)C(F)(F)C(F)(F)C(F)(F)C(F)(F)C(F)(F)F show?
## Output 17.2
